system: HCT116; experiment: MTT cell viability, HCT116; assay type: cell-based, Human; details: Homo sapiens, HCT-116, 72 h, read-out: half-maximal inhibitory concentration (IC50) HCT116
Measurement Type: IC50

Supply IC50 value. Item: O=c1cc(O)c2ccccc2o1 [4-Hydroxycoumarin, reference compound]
> 200 µM

====

system: HCT116; assay: MTT cell viability, HCT116; format: cell-based, Human; conditions: Homo sapiens, HCT-116, 72 h, 72 h, MTT assay, mean ± SD (n = 6); read-out: half-maximal inhibitory concentration (IC50) HCT116
Measurement Type: log10 IC50 (log10 of the value in µM)
All values: log10 IC50 [µM].

Record excerpt, results attached:
CCCc1cc(=O)oc2cc(Nc3nc(-c4cccc(OC)c4)cs3)ccc12 [Compound 11e]	1.46
CCc1cc(=O)oc2cc(Nc3nc(-c4ccc(Br)cc4)cs3)ccc12 [Compound 10b]	0.48
COc1cccc(-c2csc(Nc3ccc4c(C)cc(=O)oc4c3)n2)c1	0.48
CCc1cc(=O)oc2cc(Nc3nc(-c4cccc(F)c4)cs3)ccc12 [Compound 10g]	0.61
CCCc1cc(=O)oc2cc(Nc3nc(-c4ccccc4)cs3)ccc12 [Compound 11a]	0.83
Cc1cc(=O)oc2cc(Nc3nc(-c4cccc([N+](=O)[O-])c4)cs3)ccc12	0.60
CCOc1ccc(-c2csc(Nc3ccc4c(C)cc(=O)oc4c3)n2)cc1	0.51
CCCc1cc(=O)oc2cc(Nc3nc(-c4ccc(Br)cc4)cs3)ccc12 [Compound 11b]	-0.59
Cc1cc(=O)oc2cc(Nc3nc(-c4cccc(F)c4)cs3)ccc12	0.54
Cc1cc(=O)oc2cc(Nc3nc(-c4ccc(Cl)cc4)cs3)ccc12	-0.51

Supply log10 IC50 value. Item: CCc1cc(=O)oc2cc(Nc3nc(-c4ccccc4[N+](=O)[O-])cs3)ccc12 [Compound 10h]
0.67

Supply log10 IC50 value. Item: `Cc1cc(=O)oc2cc(Nc3nc(-c4ccc(Br)cc4)cs3)ccc12`
-0.42

====

tested on: HCT116; assay: MTT cell viability, HCT116; type: cell-based, Human; conditions: Homo sapiens, HCT-116, 72 h, 72 h, MTT assay, mean ± SD (n = 6); read-out: half-maximal inhibitory concentration (IC50) HCT116
Measurement Type: IC50 (µM)
Your answer is read as µM, so omit the unit and give the number.

Record excerpt, results attached:
CCCc1cc(=O)oc2cc(Nc3nc(-c4cccc(F)c4)cs3)ccc12 [Compound 11g]	4.08
COc1ccccc1-c1csc(Nc2ccc3c(C)cc(=O)oc3c2)n1 [Compound 9i]	0.32
CCc1cc(=O)oc2cc(Nc3nc(-c4ccc(Cl)cc4)cs3)ccc12 [Compound 10c]	3.54

Supply IC50 value. Item: CCCc1cc(=O)oc2cc(Nc3nc(-c4ccc(Cl)cc4)cs3)ccc12 [Compound 11c]
0.34

====

Test system: HCT116
Experiment: MTT cell viability, HCT116
Type: cell-based, Human
Conditions: Homo sapiens, HCT-116, 72 h, 72 h, MTT assay, mean ± SD (n = 6); read-out: half-maximal inhibitory concentration (IC50) HCT116
Description: The potential cytotoxicity of 24 candidate compounds was initially evaluated at a single concentration level (5 μM). […] Cell viability was assessed using, 3-(4,5-dimethylthiazol-2-yl)-2,5-diphenyltetrazolium bromide (MTT) assay as previously described. […] The reduced MTT crystals were solubilized in 200 µl/well of DMSO and the absorbance was measured at 570 nm using a microplate reader (Thermo-Scientific, Vantaa, Finland).
Measurement Type: IC50

Record excerpt, results attached:
CCc1cc(=O)oc2cc(Nc3nc(-c4cccc(OC)c4)cs3)ccc12 [Compound 10e]	> 30 µM
CCCc1cc(=O)oc2cc(Nc3nc(-c4cccc([N+](=O)[O-])c4)cs3)ccc12 [Compound 11f]	> 30 µM
CCc1cc(=O)oc2cc(Nc3nc(-c4ccccc4)cs3)ccc12 [Compound 10a]	> 30 µM
CCCc1cc(=O)oc2cc(Nc3nc(-c4ccccc4[N+](=O)[O-])cs3)ccc12 [Compound 11h]	6.3 µM

State IC50 (HCT116) of CCc1cc(=O)oc2cc(Nc3nc(-c4ccccc4OC)cs3)ccc12 [Compound 10i] .
13.5 µM

State IC50 (HCT116) of CCc1cc(=O)oc2cc(Nc3nc(-c4cccc([N+](=O)[O-])c4)cs3)ccc12 [Compound 10f] .
10.3 µM
